Values compiled from PubChem BioAssay AID1963427.

Tested on: 317291-083-R-J1-PDC complex spheroid growth
test protocol: Anticancer human tumor 317291-083-R-J1-PDC patient-derived soft tissue sarcoma cell line growth inhibition [Asc]
measurement setup: second compound 3.16 µM; first compound 3.16 µM; stronger effect = lower value
# viability, T/C per entry
measured endpoint: viability, T/C (%)

compound	val
C=C(F)C(=O)N1CCN(c2nc(OCC3CCCN3C)nc3c2CCN(c2cccc4cccc(Cl)c24)C3)CC1CC#N (centres undefined) + Cc1c(S(C)(=O)=O)c(-c2cc(F)cc(N3CCN(c4ccc(NS(=O)(=O)c5ccc(NC(CCN6CCC(C(=O)OCCCP(=O)(O)O)CC6)CSc6ccccc6)c(S(=O)(=O)C(F)(F)F)c5)cc4)CC3)c2)c(-c2ccc(Cl)cc2)n1C(C)C	7.37
O=C(c1cc(Cc2n[nH]c(=O)c3ccccc23)ccc1F)N1CCN(C(=O)C2CC2)CC1 + Cc1c(S(C)(=O)=O)c(-c2cc(F)cc(N3CCN(c4ccc(NS(=O)(=O)c5ccc(NC(CCN6CCC(C(=O)OCCCP(=O)(O)O)CC6)CSc6ccccc6)c(S(=O)(=O)C(F)(F)F)c5)cc4)CC3)c2)c(-c2ccc(Cl)cc2)n1C(C)C	67.6
C=CC(=O)N1CCN(c2nc(=O)n(-c3c(C)ccnc3C(C)C)c3nc(-c4c(O)cccc4F)c(F)cc23)C(C)C1 (centres undefined) + Cc1c(S(C)(=O)=O)c(-c2cc(F)cc(N3CCN(c4ccc(NS(=O)(=O)c5ccc(NC(CCN6CCC(C(=O)OCCCP(=O)(O)O)CC6)CSc6ccccc6)c(S(=O)(=O)C(F)(F)F)c5)cc4)CC3)c2)c(-c2ccc(Cl)cc2)n1C(C)C	79.5
C#Cc1c(F)ccc2cc(O)cc(-c3ncc4c(N5CC6CCC(C5)N6)nc(OCC56CCCN5CC(F)C6)nc4c3F)c12 (centres undefined) + Cc1c(S(C)(=O)=O)c(-c2cc(F)cc(N3CCN(c4ccc(NS(=O)(=O)c5ccc(NC(CCN6CCC(C(=O)OCCCP(=O)(O)O)CC6)CSc6ccccc6)c(S(=O)(=O)C(F)(F)F)c5)cc4)CC3)c2)c(-c2ccc(Cl)cc2)n1C(C)C	74.3

* * *

Tested on: 317291-083-R-J1-PDC complex spheroid growth
test protocol: Anticancer human tumor 317291-083-R-J1-PDC cell line growth inhibition [Asc];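 also: compound exposure lasted seven days after spheroids formed for three days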;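 as to viability, T/C: 100% = DMSO vehicle control wells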
measurement setup: second compound 0.316 µM; first compound 0.316 µM; stronger effect = lower value
API: label(entry) gives 1 (yes) if the entry's viability, T/C is strictly smaller than 40%; on equality or larger values it gives 0 (no).

compound	class label
O=C(c1cc(Cc2n[nH]c(=O)c3ccccc23)ccc1F)N1CCN(C(=O)C2CC2)CC1 + CNC(C)C(=O)NC1CN(S(=O)(=O)c2cccc(S(=O)(=O)N3CCC4CCC(C(=O)NC(c5ccccc5)c5ccccc5)N4C(=O)C(NC(=O)C(C)NC)C3)c2)CCC2CCC(C(=O)NC(c3ccccc3)c3ccccc3)N2C1=O	0 (no)
C=C(F)C(=O)N1CCN(c2nc(OCC3CCCN3C)nc3c2CCN(c2cccc4cccc(Cl)c24)C3)CC1CC#N (configuration not stated) + CNC(C)C(=O)NC1CN(S(=O)(=O)c2cccc(S(=O)(=O)N3CCC4CCC(C(=O)NC(c5ccccc5)c5ccccc5)N4C(=O)C(NC(=O)C(C)NC)C3)c2)CCC2CCC(C(=O)NC(c3ccccc3)c3ccccc3)N2C1=O	1 (yes)
O=C(c1ccc(F)c(F)c1Nc1ccc(I)cc1F)N1CC(O)([C@@H]2CCCCN2)C1 + Cc1c(S(C)(=O)=O)c(-c2cc(F)cc(N3CCN(c4ccc(NS(=O)(=O)c5ccc(NC(CCN6CCC(C(=O)OCCCP(=O)(O)O)CC6)CSc6ccccc6)c(S(=O)(=O)C(F)(F)F)c5)cc4)CC3)c2)c(-c2ccc(Cl)cc2)n1C(C)C	0 (no)
C=CC(=O)N1CCN(c2nc(=O)n(-c3c(C)ccnc3C(C)C)c3nc(-c4c(O)cccc4F)c(F)cc23)C(C)C1 (configuration not stated) + CNC(C)C(=O)NC1CN(S(=O)(=O)c2cccc(S(=O)(=O)N3CCC4CCC(C(=O)NC(c5ccccc5)c5ccccc5)N4C(=O)C(NC(=O)C(C)NC)C3)c2)CCC2CCC(C(=O)NC(c3ccccc3)c3ccccc3)N2C1=O	0 (no)
COc1c(OCCCN2CCOCC2)ccc2c3n(c(=NC(=O)c4cnc(N)nc4)nc12)CCN3 + CNC(C)C(=O)NC1CN(S(=O)(=O)c2cccc(S(=O)(=O)N3CCC4CCC(C(=O)NC(c5ccccc5)c5ccccc5)N4C(=O)C(NC(=O)C(C)NC)C3)c2)CCC2CCC(C(=O)NC(c3ccccc3)c3ccccc3)N2C1=O	1 (yes)
COc1c(OCCCN2CCOCC2)ccc2c3n(c(=NC(=O)c4cnc(N)nc4)nc12)CCN3 + Cc1c(S(C)(=O)=O)c(-c2cc(F)cc(N3CCN(c4ccc(NS(=O)(=O)c5ccc(NC(CCN6CCC(C(=O)OCCCP(=O)(O)O)CC6)CSc6ccccc6)c(S(=O)(=O)C(F)(F)F)c5)cc4)CC3)c2)c(-c2ccc(Cl)cc2)n1C(C)C	1 (yes)
O=C(c1ccc(F)c(F)c1Nc1ccc(I)cc1F)N1CC(O)([C@@H]2CCCCN2)C1 + CNC(C)C(=O)NC1CN(S(=O)(=O)c2cccc(S(=O)(=O)N3CCC4CCC(C(=O)NC(c5ccccc5)c5ccccc5)N4C(=O)C(NC(=O)C(C)NC)C3)c2)CCC2CCC(C(=O)NC(c3ccccc3)c3ccccc3)N2C1=O	1 (yes)
C#Cc1c(F)ccc2cc(O)cc(-c3ncc4c(N5CC6CCC(C5)N6)nc(OCC56CCCN5CC(F)C6)nc4c3F)c12 (configuration not stated) + Cc1c(S(C)(=O)=O)c(-c2cc(F)cc(N3CCN(c4ccc(NS(=O)(=O)c5ccc(NC(CCN6CCC(C(=O)OCCCP(=O)(O)O)CC6)CSc6ccccc6)c(S(=O)(=O)C(F)(F)F)c5)cc4)CC3)c2)c(-c2ccc(Cl)cc2)n1C(C)C	0 (no)
CCN1CCN(Cc2ccc(Nc3ncc(F)c(-c4cc(F)c5nc(C)n(C(C)C)c5c4)n3)nc2)CC1 + Cc1c(S(C)(=O)=O)c(-c2cc(F)cc(N3CCN(c4ccc(NS(=O)(=O)c5ccc(NC(CCN6CCC(C(=O)OCCCP(=O)(O)O)CC6)CSc6ccccc6)c(S(=O)(=O)C(F)(F)F)c5)cc4)CC3)c2)c(-c2ccc(Cl)cc2)n1C(C)C	0 (no)
C#Cc1c(F)ccc2cc(O)cc(-c3ncc4c(N5CC6CCC(C5)N6)nc(OCC56CCCN5CC(F)C6)nc4c3F)c12 (configuration not stated) + CNC(C)C(=O)NC1CN(S(=O)(=O)c2cccc(S(=O)(=O)N3CCC4CCC(C(=O)NC(c5ccccc5)c5ccccc5)N4C(=O)C(NC(=O)C(C)NC)C3)c2)CCC2CCC(C(=O)NC(c3ccccc3)c3ccccc3)N2C1=O	0 (no)
O=C(c1cc(Cc2n[nH]c(=O)c3ccccc23)ccc1F)N1CCN(C(=O)C2CC2)CC1 + Cc1c(S(C)(=O)=O)c(-c2cc(F)cc(N3CCN(c4ccc(NS(=O)(=O)c5ccc(NC(CCN6CCC(C(=O)OCCCP(=O)(O)O)CC6)CSc6ccccc6)c(S(=O)(=O)C(F)(F)F)c5)cc4)CC3)c2)c(-c2ccc(Cl)cc2)n1C(C)C	0 (no)
CNC(C)C(=O)NC1CN(S(=O)(=O)c2cccc(S(=O)(=O)N3CCC4CCC(C(=O)NC(c5ccccc5)c5ccccc5)N4C(=O)C(NC(=O)C(C)NC)C3)c2)CCC2CCC(C(=O)NC(c3ccccc3)c3ccccc3)N2C1=O (configuration not stated) + Cc1c(S(C)(=O)=O)c(-c2cc(F)cc(N3CCN(c4ccc(NS(=O)(=O)c5ccc(NC(CCN6CCC(C(=O)OCCCP(=O)(O)O)CC6)CSc6ccccc6)c(S(=O)(=O)C(F)(F)F)c5)cc4)CC3)c2)c(-c2ccc(Cl)cc2)n1C(C)C	1 (yes)

* * *

Tested on: 317291-083-R-J1-PDC complex spheroid growth
test protocol: Anticancer human tumor 317291-083-R-J1-PDC cell line growth inhibition [Asc];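 also: compound exposure lasted seven days after spheroids formed for three days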
measurement setup: curve of first compound; second compound 0.949 µM

compound	assay target	qualifying sign	IC50 [µM]
C=C(F)C(=O)N1CCN(c2nc(OCC3CCCN3C)nc3c2CCN(c2cccc4cccc(Cl)c24)C3)CC1CC#N (stereo not given) + CCN1C(C(=O)NC23CCC(C(=O)O)(CC2)CC3)C(c2cccc(Cl)c2F)C2(C(=O)Nc3cc(Cl)ccc32)C12CCCCC2	317291-083-R-J1-PDC complex spheroid growth	=	2.43
Cn1ncnc1[C@H]1c2n[nH]c(=O)c3cc(F)cc(c23)N[C@@H]1c1ccc(F)cc1 + CCN1C(C(=O)NC23CCC(C(=O)O)(CC2)CC3)C(c2cccc(Cl)c2F)C2(C(=O)Nc3cc(Cl)ccc32)C12CCCCC2	317291-083-R-J1-PDC complex spheroid growth	>	0.1
Cc1nc(N2CCC3(CC2)COC(C)C3N)c(CO)nc1Sc1ccnc(N)c1Cl (stereo not given) + CCN1C(C(=O)NC23CCC(C(=O)O)(CC2)CC3)C(c2cccc(Cl)c2F)C2(C(=O)Nc3cc(Cl)ccc32)C12CCCCC2	317291-083-R-J1-PDC complex spheroid growth	>	3
O=C(c1ccc(F)c(F)c1Nc1ccc(I)cc1F)N1CC(O)([C@@H]2CCCCN2)C1 + CCN1C(C(=O)NC23CCC(C(=O)O)(CC2)CC3)C(c2cccc(Cl)c2F)C2(C(=O)Nc3cc(Cl)ccc32)C12CCCCC2	317291-083-R-J1-PDC complex spheroid growth	=	0.528
CCN1CCN(Cc2ccc(Nc3ncc(F)c(-c4cc(F)c5nc(C)n(C(C)C)c5c4)n3)nc2)CC1 + CCN1C(C(=O)NC23CCC(C(=O)O)(CC2)CC3)C(c2cccc(Cl)c2F)C2(C(=O)Nc3cc(Cl)ccc32)C12CCCCC2	317291-083-R-J1-PDC complex spheroid growth	=	0.837
